# maps each entry to its Dose-Response (conc. at which slope is better than control)
biological target: preformed human β-2 microglobulin fibrils (Homo sapiens, UniProt P61769); experiment: Dose-response testing by thioflavin T fluorescence; assay type: biochemical; details: ThT/β2M fibril fluorescence; tested 100 nM to 10 mM
Sequence (P61769 21-119): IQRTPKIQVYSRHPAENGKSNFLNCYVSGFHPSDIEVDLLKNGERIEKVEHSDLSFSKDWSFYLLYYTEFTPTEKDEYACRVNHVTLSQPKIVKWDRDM
Counter-ions that a name gives are not always drawn.

molecule="C=C1c2c(Cl)ccc(O)c2C(O)=C2C(=O)[C@]3(O)C(=O)/C(=C(\\N)O)C(=O)[C@@H](N(C)C)[C@@H]3[C@@H](O)[C@H]12 [Meclocycline sulfosalicylate]" result="10 µM"

input: I am curious: what Dose-Response (conc. at which slope is better than control) value has been reported for CN1CCc2cccc3c2[C@H]1Cc1ccc(O)c(O)c1-3 [Apomorphine hydrochloride hemihydrate] ?
output: 1 to 10 µM

input: Value lookup for Dose-Response (conc. at which slope is better than control); key = COc1cc(NC(C)CCCN)c2ncccc2c1 (stereo not shown) [Primaquine diphosphate]
output: 10 µM

input: Returns the measured Dose-Response (conc. at which slope is better than control) for the input molecule. Input: NC(CO)C(=O)NNCc1ccc(O)c(O)c1O (stereo not shown) [Compound L18, benserazide hydrochloride]
output: 10 µM

input: I am curious: what Dose-Response (conc. at which slope is better than control) value has been reported for `Cc1cc(O)c(C=O)c(O)c1C(=O)O` ?
output: 1 µM

input: Dose-Response (conc. at which slope is better than control) for O=C(O[C@@H]1Cc2c(O)cc(O)cc2O[C@@H]1c1cc(O)c(O)c(O)c1)c1cc(O)c(O)c(O)c1 [Compound 22, Epigallocatechin gallate] ?
output: 10 µM

input: What value of Dose-Response (conc. at which slope is better than control) has been reported for the following molecule? COc1cc(C)c2c(c1C=O)Oc1c(c(C)c(O)c3c1C(O)OC3=O)OC2=O (stereo not shown)
output: 10 µM

The reported numbers originate from patent US9463195B2.
